Collected literature values of IC50 measured for RNA-directed RNA polymerase (Hepacivirus hominis, UniProt O39930).
Outcome measure: IC50 (µM)

Solved cases below.
Compound | Outcome measure | Recorded measurement
Cc1cc(/C(O)=C/C(=O)C(=O)O)c(C)o1 | IC50 | 14
O=C(O)/C(=C/c1ccc(Oc2ccccc2Br)cc1)NC(=O)C1CCCCC1 | IC50 | 0.2
O=C(O)[C@H]1C[C@@H](C(=O)O)N(C(=O)c2ccc(C(F)(F)F)cc2)C1 (racemic) | IC50 | 7.6

[P] Cn1c(-c2ccccc2)c(C2CCCCC2)c2ccc(C(=O)O)cc21
[Q] O=C(O)/C(=C/c1ccc(-c2ccc(OC(F)(F)F)cc2)o1)NC(=O)c1ccccc1
Req: Which item exceeds the other in IC50, P or Q ? Provide the label of your selected option as the answer.
Resp: Q

---

Collected literature values of IC50 measured for RNA-directed RNA polymerase (Hepacivirus hominis, UniProt O39930).
Outcome measure: IC50 (µM)

Solved cases below.
Cpd smiles | Outcome measure | Quantity unit | Recorded measurement
O=C(O)[C@@H]1CCCN1S(=O)(=O)c1cc(Cl)cc(Br)c1O | IC50 | µM | 0.26
COc1ccccc1Oc1ccc(/C=C(\NC(=O)c2ccccc2)C(=O)O)cc1 | IC50 | µM | 15

[A] O=C(O)c1sc(-c2ccccc2)cc1NS(=O)(=O)c1ccc(C(F)(F)F)cn1
[B] O=C(O)c1cnc(N(C(=O)c2ccc(OCc3cccc(F)c3)cc2)C2CCCCC2)s1
[C] CNC(=O)c1c(-c2ccc(F)cc2)oc2nc(CNC(=O)COC)c(C3CC3)cc12
Req: Order the records, beginning with the lowest IC50 and ending with the highest. Returns: the labels arranged in the requested order.
Resp: C, B, A
(C: 3.16 µM, B: 6.5 µM, A: 15 µM)

---

Collected literature values of IC50 measured for RNA-directed RNA polymerase (Hepacivirus hominis).
Outcome measure: IC50 (µM)

Solved cases below.
Compound | IC50, µM
CCc1ccc(C(=O)CC(=O)C(=O)O)cc1 | 47
O=C(O)c1ccc2[nH]cc(C[C@H](NC(=O)c3ccc4c(c3)nc(-c3ccoc3)n4C3CCCCC3)C(=O)O)c2c1 | 0.02
COc1ccc2[nH]cc(C[C@H](NC(=O)c3ccc4c(c3)nc(-c3ccoc3)n4C3CCCCC3)C(=O)O)c2c1 | 0.4

[P] C[C@@H]1C[C@@H](N(C(=O)c2ccc(Oc3ccccc3)cc2)c2nc(C(=O)O)cs2)CC(C)(C)C1 (single isomer, unassigned)
[Q] O=C(O)C(=O)/C=C(\O)c1cccc(O)c1
[R] COc1cccc(COc2ccc(C(=O)N(c3ncc(C(=O)O)s3)C3CCCCC3)cc2)c1
[S] N#CCCCOc1ccccc1C(=O)CC(=O)C(=O)O
Req: Order the records, beginning with the lowest IC50 and ending with the highest. Returns: the labels arranged in the requested order.
Resp: S, Q, R, P
(S: 0.35 µM, Q: 1 µM, R: 3.2 µM, P: 5.5 µM)

---

Collected literature values of IC50 measured for RNA-directed RNA polymerase (Hepacivirus hominis).
Outcome measure: IC50 (µM)

Solved cases below.
Compound | IC50 (µM)
COc1ccc2c(C(=O)NC(CCC(=O)O)C(=O)O)c(Br)ccc2c1C(F)(F)F (stereo not given) | 0.12
Cc1ccccc1-c1ccc(/C=C(\NC(=O)c2ccccc2)C(=O)O)o1 | 3
O=C(O)[C@@H]1CCCN1S(=O)(=O)c1cc(F)cc(Cl)c1O | 2.1
O=C(O)C(=O)/C=C(O)/C=C/c1c[nH]c2ccc(Cl)cc12 | 18
CC(C)C[C@@]1(C(=O)O)C[C@H](C(=O)O)[C@H](C(C)C)N1C(=O)c1ccc(C(F)(F)F)cc1 | 0.5
COc1ccc2c(C(=O)NC(CCC(=O)O)C(=O)O)cccc2c1C(F)(F)F (stereo not given) | 0.49
COc1ccccc1CCNc1ncnc2nc(-c3ccc(F)cc3)c(-c3ccc(F)cc3)nc12 | 80
CCc1ccccc1Oc1ccc(/C=C(\NC(=O)c2ccccc2)C(=O)O)cc1 | 9.4

[1] COC(=O)N(CC(=O)O)C(=O)c1c(OC)ccc2c(C(F)(F)F)c(OC)ccc12
[2] O=c1[nH]cnc2nc(-c3ccc(Br)cc3)c(-c3ccc(Br)cc3)nc12
Req: Which item exceeds the other in IC50, 1 or 2 ? Provide the label of your selected option as the answer.
Resp: 2
(2: 30 µM, 1: 11.3 µM)
